Reference source: ChEMBL document CHEMBL1914316

Test: Drug uptake in C57BL/6 mouse plasma at 10 mg/kg, po after 6 hrs
Assay type: ADME, organism-based, C57BL6
Parameters: dose 10 mg/kg, route oral
Settings: read-out: Drug uptake

smilesRepresentation: NC(=O)c1cn(Cc2cc(Br)c(Br)c(Br)c2)nn1
concentration at 6 h / nM: 740

---

Assay: Drug uptake in C57BL/6 mouse liver at 30 mg/kg, po after 3 hrs
Assay type: ADME, organism-based, C57BL6
Parameters: dose 30 mg/kg, route oral
Details: read-out: Drug uptake

smilesRepresentation: NC(=O)c1cn(Cc2cc(Br)c(Br)c(Br)c2)nn1
concentration at 3 h [µM]: 14
--
smilesRepresentation: O=C(O)Cn1nnc(-c2cnc(-c3cn(Cc4cc(Cl)c(Cl)c(Cl)c4)nn3)s2)n1
concentration at 3 h [µM]: 4.1
--
smilesRepresentation: O=C(O)Cn1nnc(-c2cc(-c3cn(Cc4cc(Br)c(Br)c(Br)c4)nn3)no2)n1
concentration at 3 h [µM]: 8.4
--
smilesRepresentation: O=C(O)Cn1nnc(-c2cncc(-c3cn(Cc4cc(Br)c(Br)c(Br)c4)nn3)c2)n1
concentration at 3 h [µM]: 0.9
